List of growth values.
System: UO-31 renal
Test: NCI-60 one-dose screen, 48 h (100 = growth as untreated, 0 = no growth, -100 = all killed)
Conditions: 10 µM unless noted
Description: Growth inhibition of the UO-31 human tumor cell line is measured as a screen for anti-cancer activity. Cells are grown in 96 well plates and exposed to the test compound for 48 hours. Compounds are tested at a single concentration, which is 10^-5 M for most compounds. The reported endpoint is percent growth (GI% or GIPRCNT), where numbers from 0 - 100% represent growth inhibition, and numbers from -100% - 0 represent cell death. For example, a value of 40 represents 60% growth inhibition. […]
About 83,000 compounds went through this panel and 20% of them were active in at least one assay; those are over-represented in the sample as a whole.

>  <molecule>
C=C1C(=O)O[C@H]2[C@H]1CC/C(Cn1cc(CNC(=O)/C=C/c3c[nH]c4ccccc34)nn1)=C\CC[C@@]1(C)O[C@@H]21

>  <growth, %>
92.6

$$$$
>  <molecule>
C=C(C)[C@@H]1C[C@@H]2Cc3cc(F)ccc3N1O2

>  <growth, %>
77.4

$$$$
>  <molecule>
CN(C[C@H]1Cc2c(cccc2N2CCN(c3ncccn3)CC2)CN1)[C@H]1CCCc2cccnc21

>  <growth, %>
16.9

$$$$
>  <molecule>
COc1ccc(-c2cn(-c3cccc(C(=O)/C=C/c4cc(OC)c(OC)c(OC)c4)c3)c(=O)[nH]2)cc1OC

>  <growth, %>
68.3

$$$$
>  <molecule>
COc1ccc(-c2c(N)n[nH]c2-c2cc3c(c(OC)c2OC)OCO3)cc1

>  <growth, %>
84

$$$$
>  <molecule>
c1cc(C2=N[C@@H]3c4ccccc4C[C@@H]3O2)nc(C2=N[C@@H]3c4ccccc4C[C@@H]3O2)c1

>  <growth, %>
94.6

$$$$
>  <molecule>
N=C(N)c1ccc(-c2ccc(-c3cncc4ccccc34)s2)cc1F

>  <growth, %>
-87.3

$$$$
>  <molecule>
c1ccc(-c2nc(N3CCNCC3)c3nc(-c4ccccc4)oc3n2)cc1

>  <growth, %>
-91.6

$$$$
>  <molecule>
COc1ccc(C(=O)NC(=O)Nc2cc3c(cc2F)/C(=C/c2[nH]c(C)c(CCC(=O)O)c2C)C(=O)N3)c(F)c1

>  <growth, %>
58.6

$$$$
>  <molecule>
CCCCOc1ccc(/C=C2/SC(N3CCOCC3)=NC2=O)cc1OCC

>  <growth, %>
79.4

$$$$
>  <molecule>
COc1ccc(-c2ccc(C)n2-c2ccc(-c3nc4ccccc4s3)cc2)cc1

>  <growth, %>
86.6

$$$$
>  <molecule>
Cc1ccc(S(=O)(=O)c2nc(-c3ccccc3)oc2S(C)(=O)=O)cc1

>  <growth, %>
2.62

$$$$
>  <molecule>
N#Cc1c(-c2ccccc2)cc(-c2ccccc2)n(CC(=O)NO)c1=O

>  <growth, %>
25.2

$$$$
>  <molecule>
CN1C(=O)N(C)C2C1NN=c1s/c(=C\c3cccnc3)c(=O)n12 (stereo not given)

>  <growth, %>
66.5

$$$$
>  <molecule>
CC(C)(C)n1cc(-c2ccnc(NCCCNS(=O)(=O)c3cccc(F)c3)c2)c(-c2cccc(O)c2)n1

>  <growth, %>
57.8

$$$$
>  <molecule>
Cc1cc(N)n(S(=O)(=O)c2oc(-c3ccccc3)nc2C#N)n1

>  <growth, %>
80.6

$$$$
>  <molecule>
CN1CCN(Cc2ccc(NC(=O)c3cncc(C#Cc4cnc(N)c5cnccc45)c3)cc2C(F)(F)F)CC1

>  <growth, %>
-21.1

$$$$
>  <molecule>
COc1ccc(-n2c(=S)sc3c(Cl)nc(C)nc32)c(OC)c1

>  <growth, %>
-36.2

$$$$
>  <molecule>
COc1cc(/C=C/C(=O)c2ccc(Nc3ncnc4cc(OC)c(OC)cc34)cc2)cc(OC)c1

>  <growth, %>
94.4

$$$$
>  <molecule>
Cc1ccc(C(=O)NCCCNc2nccc(-n3ccc4cccnc43)n2)cc1

>  <growth, %>
85.9

$$$$
>  <molecule>
O=C(/C=C/c1c[nH]c2ccccc12)c1ccc(O)c(CN2CCN(c3ccc(F)cc3)CC2)c1

>  <growth, %>
59.4

$$$$
>  <molecule>
COc1cccc(-c2cc3c(O)cc(C#N)cc3[nH]2)c1

>  <growth, %>
106

$$$$
>  <molecule>
COc1ccc2[nH]c(C(=O)OCc3ccc4c(Cl)cc(Cl)c(O)c4n3)cc2c1

>  <growth, %>
-100

$$$$
>  <molecule>
COc1ccc(/C=C(\C#N)c2cc(OC)c3c(c2)OCO3)cc1

>  <growth, %>
39.9

$$$$
>  <molecule>
CC(=O)Oc1csc(N(C(C)=O)c2cc(C(=O)O)cc(C(=O)O)c2)n1

>  <growth, %>
92.7

$$$$
>  <molecule>
Clc1cc2c(nn1)Nc1ccccc1S2

>  <growth, %>
106

$$$$
>  <molecule>
O=C1c2c(Cl)c(Cl)c(Cl)c(Cl)c2C(=O)C2(Cl)CC=CCC12Cl (stereo not given)

>  <growth, %>
17.9

$$$$
>  <molecule>
O=C1CCCCC1(c1ccccc1)c1ccccc1

>  <growth, %>
98.8

$$$$
>  <molecule>
O=c1[nH]c(-c2ccccc2)nc(CN2CCCCC2)c1O

>  <growth, %>
95.1

$$$$
>  <molecule>
Cc1ccc(S(=O)(=O)/C(=C\c2ccc(Cl)cc2)C(=O)c2ccccc2)cc1

>  <growth, %>
90.1

$$$$
>  <molecule>
COc1ccc(Nc2nc(N)nc3c2CCN(Cc2ccc(OC)cc2OC)C3=O)cc1

>  <growth, %>
60.3

$$$$
>  <molecule>
CN1CCN(CCCOc2ccc3nc(Nc4ccc(Cl)c(C(F)(F)F)c4)ccc3c2)CC1

>  <growth, %>
69.6

$$$$
>  <molecule>
COc1ccc(S(=O)(=O)n2cc(C(=O)C(=O)Nc3ccncc3)c3ccccc32)cc1F

>  <growth, %>
81.8

$$$$
>  <molecule>
CC1(C)C(=O)/C(=C\c2ccc(C(F)(F)F)cc2)C[C@]2(C)[C@H]3CC[C@@H]4[C@H]5[C@H](C(=O)/C=C/c6ccc(C(F)(F)F)cc6)CC[C@]5(CO)CC[C@@]4(C)[C@]3(C)CC[C@@H]12

>  <growth, %>
66.6

$$$$
>  <molecule>
CC(C)(C)c1[nH]nc2c1C(c1cc3ccccc3[nH]c1=O)Nc1cc(C(=O)Nc3ccc(Cl)cc3)ccc1N2 (stereo not given)

>  <growth, %>
83.8

$$$$
>  <molecule>
COc1ccc(Nc2nn3c(C)cc(C)nc3c2C(=O)Nc2ccc(C)cc2)c(OC)c1

>  <growth, %>
82

$$$$
>  <molecule>
COc1cc(-c2nn(-c3cccc(NC(=O)Nc4cccc(C(F)(F)F)c4)c3)cc2-c2ccncc2)ccc1Cl

>  <growth, %>
7.94

$$$$
>  <molecule>
O=C(C1=Cc2cc3ccccc3n2Cc2cnnn21)c1ccccc1

>  <growth, %>
64.8

$$$$
>  <molecule>
CCOC(=O)CC(=O)OC

>  <growth, %>
90.4

$$$$
>  <molecule>
O=C(NNC(=S)Nc1ccccc1)c1cc2ccc1CCc1ccc(cc1)CC2

>  <growth, %>
82.2

$$$$
